Tested on: Kidney
Experiment: Biodistribution in NMRI mouse kidney at 3.7 MBq/mL, iv after 2 mins by gamma counting
Type: ADME, organism-based
Conditions: in vivo
Parameter threshold = 8%. Response is label 1 when Drug uptake meets or exceeds it, else label 0.

I'd appreciate it if you could say whether "Cc1ccc2nc(-c3ccc([18F])cc3)sc2c1" has Drug uptake at least equal to 8%.
label 0

I'd appreciate it if you could say whether [11CH3]Nc1ccc(-c2nc3ccc(O)cc3s2)cc1 [PITTSBURGH COMPOUND B] has Drug uptake at least equal to 8%.
label 1

I'd appreciate it if you could say whether "CN(C)c1ccc2nc(-c3ccc([18F])cc3)sc2c1" has Drug uptake at least equal to 8%.
label 1

I'd appreciate it if you could say whether "Nc1ccc2nc(-c3ccc([18F])cc3)sc2c1" has Drug uptake at least equal to 8%.
label 1

----------
Tested on: Lung
Assay: Biodistribution in NMRI mouse lung at 3.7 MBq/mL, iv after 60 mins by gamma counting
Type: ADME, organism-based
Settings: in vivo, 1 h
MEASUREMENT LABEL: Drug uptake (%)
Give just the numeric value; % need not be written.

Quick one: Drug uptake for "[11CH3]Nc1ccc(-c2nc3ccc(O)cc3s2)cc1" ?
0.3

Quick one: Drug uptake for "CN(C)c1ccc2nc(-c3ccc([18F])cc3)sc2c1" ?
0.6

Quick one: Drug uptake for "Cc1ccc2nc(-c3ccc([18F])cc3)sc2c1" ?
0.3

Quick one: Drug uptake for "CNc1ccc2nc(-c3ccc([18F])cc3)sc2c1" ?
0.3

Quick one: Drug uptake for "Nc1ccc2nc(-c3ccc([18F])cc3)sc2c1" ?
0.3

----------
Tested on: Intestine
Assay: Biodistribution in NMRI mouse intestine at 3.7 MBq/mL, iv after 60 mins by gamma counting
Format: ADME, organism-based
Settings: in vivo, 1 h
Parameter threshold = 40%. Response is 1 when Drug uptake meets or exceeds it, else -1.

I'd appreciate it if you could say whether "CNc1ccc2nc(-c3ccc([18F])cc3)sc2c1" has Drug uptake at least equal to 40%.
-1

I'd appreciate it if you could say whether "Cc1ccc2nc(-c3ccc([18F])cc3)sc2c1" has Drug uptake at least equal to 40%.
-1

I'd appreciate it if you could say whether "CN(C)c1ccc2nc(-c3ccc([18F])cc3)sc2c1" has Drug uptake at least equal to 40%.
-1

I'd appreciate it if you could say whether "Nc1ccc2nc(-c3ccc([18F])cc3)sc2c1" has Drug uptake at least equal to 40%.
1

I'd appreciate it if you could say whether "[11CH3]Nc1ccc(-c2nc3ccc(O)cc3s2)cc1" has Drug uptake at least equal to 40%.
1

----------
Test system: Cerebellum
Assay: Biodistribution in NMRI mouse cerebellum at 3.7 MBq/mL, iv after 60 mins by gamma counting
Type: ADME, organism-based
Details: in vivo, 1 h
So basically: is Drug uptake under 0.04%? Then met. Not under? Then not met.

Here's an entry: "CN(C)c1ccc2nc(-c3ccc([18F])cc3)sc2c1" . Is its Drug uptake below 0.04%?
not met

Here's an entry: "[11CH3]Nc1ccc(-c2nc3ccc(O)cc3s2)cc1" . Is its Drug uptake below 0.04%?
met

Here's an entry: "CNc1ccc2nc(-c3ccc([18F])cc3)sc2c1" . Is its Drug uptake below 0.04%?
not met

Here's an entry: "Nc1ccc2nc(-c3ccc([18F])cc3)sc2c1" . Is its Drug uptake below 0.04%?
not met

----------
Test system: Lung
Experiment: Biodistribution in NMRI mouse lung assessed per gram of tissue at 3.7 MBq/mL, iv after 60 mins by gamma counting
Type: ADME, organism-based
Conditions: in vivo, 1 h
Please go through the items and note down their Drug uptake.
Give just the numeric value; % need not be written.

So what Drug uptake did "CN(C)c1ccc2nc(-c3ccc([18F])cc3)sc2c1" get with Lung?
1.9

So what Drug uptake did "Cc1ccc2nc(-c3ccc([18F])cc3)sc2c1" get with Lung?
1.3

So what Drug uptake did "[11CH3]Nc1ccc(-c2nc3ccc(O)cc3s2)cc1" get with Lung?
1.3

So what Drug uptake did "Nc1ccc2nc(-c3ccc([18F])cc3)sc2c1" get with Lung?
1.2

So what Drug uptake did "CNc1ccc2nc(-c3ccc([18F])cc3)sc2c1" get with Lung?
1.4

----------
Please go through the items and note down their Drug uptake.
Test system: Blood
Test: Biodistribution in NMRI mouse blood at 3.7 MBq/mL, iv after 2 mins by gamma counting
Format: ADME, organism-based
Details: in vivo
Give just the numeric value; % need not be written.

So what Drug uptake did "Cc1ccc2nc(-c3ccc([18F])cc3)sc2c1" get with Blood?
5.7

So what Drug uptake did "[11CH3]Nc1ccc(-c2nc3ccc(O)cc3s2)cc1" get with Blood?
7.9

So what Drug uptake did "Nc1ccc2nc(-c3ccc([18F])cc3)sc2c1" get with Blood?
5.3

So what Drug uptake did "CN(C)c1ccc2nc(-c3ccc([18F])cc3)sc2c1" get with Blood?
2.8

So what Drug uptake did "CNc1ccc2nc(-c3ccc([18F])cc3)sc2c1" get with Blood?
1.5

----------
System: Blood
Assay: Drug level in NMRI mouse blood assessed as standard uptake value at 3.7 MBq/mL, iv after 2 mins by gamma counting
Type: ADME, organism-based
Settings: in vivo
MEASUREMENT LABEL: SUV

Quick one: SUV for [11CH3]Nc1ccc(-c2nc3ccc(O)cc3s2)cc1 [PITTSBURGH COMPOUND B] ?
1.13

Quick one: SUV for "CN(C)c1ccc2nc(-c3ccc([18F])cc3)sc2c1" ?
0.4

Quick one: SUV for "Cc1ccc2nc(-c3ccc([18F])cc3)sc2c1" ?
0.8

Quick one: SUV for "CNc1ccc2nc(-c3ccc([18F])cc3)sc2c1" ?
0.2

Quick one: SUV for "Nc1ccc2nc(-c3ccc([18F])cc3)sc2c1" ?
0.8

----------
Assay: Drug level in NMRI mouse cerebrum assessed as standard uptake value at 3.7 MBq/mL, iv after 60 mins by gamma counting
Format: ADME, organism-based
Settings: in vivo, 1 h
MEASUREMENT LABEL: SUV

Quick one: SUV for [11CH3]Nc1ccc(-c2nc3ccc(O)cc3s2)cc1 [PITTSBURGH COMPOUND B] ?
0.22

Quick one: SUV for "CNc1ccc2nc(-c3ccc([18F])cc3)sc2c1" ?
0.48

Quick one: SUV for "Cc1ccc2nc(-c3ccc([18F])cc3)sc2c1" ?
0.1

Quick one: SUV for "Nc1ccc2nc(-c3ccc([18F])cc3)sc2c1" ?
0.31

Quick one: SUV for "CN(C)c1ccc2nc(-c3ccc([18F])cc3)sc2c1" ?
0.72
